Items are presented alongside their recorded melting point.
Please reply with the bare figure in °C and do not write the unit itself.

{"columns": ["Compound", "melting point / °C"],
 "data": [
  ["CCCCCCCCCCCCCC(=O)OC1Cc2ccc(O)c(O)c2OC1c1ccc(O)c(O)c1 (single isomer, unassigned; (-)) [Compound 4e, (−)-3-O-myristoyl mesquitol]", 83],
  ["O=C(OC1Cc2ccc(O)c(O)c2OC1c1ccc(O)c(O)c1)c1ccccc1Cl (single isomer, unassigned; (-)) [Compound 4I, (−)-3-O-(o-chlorobenzoyl) mesquitol]", 252],
  ["COc1ccc(C(=O)OC2Cc3ccc(O)c(O)c3OC2c2ccc(O)c(O)c2)cc1 (single isomer, unassigned; (-)) [Compound 4j, (−)-3-O-(p-methoxybenzoyl) mesquitol]", 254],
  ["CCCCCCCCCCCCCCCC(=O)OC1Cc2ccc(O)c(O)c2OC1c1ccc(O)c(O)c1 (single isomer, unassigned; (-)) [Compound 4f, (−)-3-O-Palmitoyl mesquitol]", 87]
]}

Here's the next entry for you.
Exercise: Please indicate melting point recorded for CCCCCCCCCCCCCCCCCC(=O)OC1Cc2ccc(O)c(O)c2OC1c1ccc(O)c(O)c1 (single isomer, unassigned; (-)) [Compound 4g, (−)-3-O-Steroyl mesquitol]
Key: 90

Reference source for all entries: patent US7071341B2
